Target: GSK3β (h) (Homo sapiens, UniProt P49841)
Sequence (P49841 whole entry): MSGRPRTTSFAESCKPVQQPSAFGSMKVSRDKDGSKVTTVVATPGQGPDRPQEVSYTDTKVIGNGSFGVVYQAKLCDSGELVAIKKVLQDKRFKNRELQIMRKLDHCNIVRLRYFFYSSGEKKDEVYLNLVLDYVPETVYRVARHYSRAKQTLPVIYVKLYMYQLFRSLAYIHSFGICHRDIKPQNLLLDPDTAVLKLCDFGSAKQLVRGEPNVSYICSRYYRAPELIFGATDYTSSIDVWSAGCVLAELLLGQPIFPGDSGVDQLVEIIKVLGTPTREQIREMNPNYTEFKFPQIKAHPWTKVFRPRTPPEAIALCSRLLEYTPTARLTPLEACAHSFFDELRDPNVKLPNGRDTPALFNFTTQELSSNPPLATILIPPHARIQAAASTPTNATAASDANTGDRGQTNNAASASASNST
Test: GSK-3β human kinase inhibition, SPA
Format: biochemical
Details: read-out: GSK3b pIC50 (converted)
endpoint: IC50 (µM)

{"compound_structure_string": "CN1CCCNC(=O)[C@H](CO)NCc2cc(Br)cc(c2)Nc2nccc(n2)-c2ccc(cc2)C1", "unit_annotation": "µM", "IC50": 6.46}
{"compound_structure_string": "CN1CCCNC(=O)C2CCN(CC2)Cc2cc(Br)cc(c2)Nc2nccc(n2)-c2ccc(cc2)C1", "unit_annotation": "µM", "IC50": 1.91}

I = CN(C)Cc1cc2cc(c1)Nc1nccc(n1)-c1cccc(c1)CNC(=O)[C@@H]1CCCN1C2
II = COc1cc2cc(c1)Nc1nccc(n1)-c1ccc(OC)c(c1)CN(C)CCNC(=O)[C@@H]1CCCN1C2
III = O=C1NCc2cccc(c2)-c2ccnc(n2)Nc2ccc(N3CCOCC3)c(c2)CN2CCC[C@@H]12
Falling order of IC50, please. Your answer should be the labels, listed in the requested order.
II, III, I
(II: 8.32 µM, III: 0.724 µM, I: 0.024 µM)

----------
Below is a list of entries, each paired with its recorded IC50 value.
Target: AuroraB (h) (Homo sapiens, UniProt Q96GD4)
Sequence (Q96GD4 whole entry): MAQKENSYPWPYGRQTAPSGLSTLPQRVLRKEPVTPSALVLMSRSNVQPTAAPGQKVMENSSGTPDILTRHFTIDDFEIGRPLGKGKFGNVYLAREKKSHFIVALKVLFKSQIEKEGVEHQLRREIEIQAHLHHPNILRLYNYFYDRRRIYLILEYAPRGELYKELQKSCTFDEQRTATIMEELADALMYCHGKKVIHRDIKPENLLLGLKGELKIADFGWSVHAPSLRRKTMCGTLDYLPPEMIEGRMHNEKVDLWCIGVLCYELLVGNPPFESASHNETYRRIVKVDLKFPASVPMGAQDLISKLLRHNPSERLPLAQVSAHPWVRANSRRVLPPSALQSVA
Test: Aurora-B human kinase inhibition, SPA
Assay type: biochemical
Details: read-out: AuroraB pIC50 (converted)

{"molecule": "O=C1CN2CCN(CC2)Cc2cc(ccc2N2CCOCC2)Nc2nccc(n2)-c2ccc(cc2)CNCCN1 [Compound 125]", "value_observed": "> 10 µM"}
{"molecule": "COc1ccc2cc1CN(C)CCCNC(=O)C1CCN(CC1)Cc1cccc(c1)Nc1nccc-2n1 [Compound 81]", "value_observed": "> 10 µM"}
{"molecule": "CN1CCCNC(=O)[C@H](CO)NCc2cccc(c2)Nc2nccc(n2)-c2ccc(cc2)C1 [Compound 113]", "value_observed": "> 10 µM"}

In the following, a different molecule is considered.
Record request: IC50 value, item O=C1NCc2cccc(c2)-c2ccnc(n2)Nc2cccc(c2)CN2CCC1CC2 [Compound 124]
> 10 µM

----------
Test system: MDA-MB-231
Assay: Cellular proliferation assay (Alamar blue), MDA-MB-231
Type: cell-based
Conditions: Homo sapiens, 10% FCS, 72 hours with compound, Alamar blue 24 h, read-out: MDA/MB231 (cellular proliferation assay, Table 4) (converted)
Below is a list of entries, each paired with its recorded IC50 value.

Study these solved cases before continuing.
{"compound_structure_string": "CN1CCNC(=O)[C@@H]2CCCN2Cc2cc(cc(N3CCOCC3)c2)Nc2nccc(n2)-c2ccc(cc2)C1", "value_observed": "> 10 µM"}
{"compound_structure_string": "COc1cc2cc(c1)Nc1nccc(n1)-c1ccc(OC)c(c1)CN(C)CCNC(=O)C1CCN(CC1)C2", "value_observed": "> 10 µM"}
{"compound_structure_string": "O=C1NCc2cccc(c2)-c2ccnc(n2)Nc2ccc(N3CCOCC3)c(c2)CN2C[C@@H](O)C[C@@H]12", "value_observed": "3.8 µM"}
{"compound_structure_string": "COc1ccc2cc1CN(C)CCCNC(=O)C1CCN(CC1)Cc1cccc(c1)Nc1nccc-2n1", "value_observed": "> 10 µM"}
{"compound_structure_string": "O=C1NCc2cccc(c2)-c2ccnc(n2)Nc2cc(CNC3CCCCC3)cc(c2)CN2CCC[C@@H]12", "value_observed": "1.82 µM"}
{"compound_structure_string": "COc1ccc2cc1CNCCCNC(=O)C1CCN(CC1)Cc1cc(ccc1N1CCOCC1)Nc1nccc-2n1", "value_observed": "> 10 µM"}
{"compound_structure_string": "O=C1NCCCOc2cccc(c2)-c2ccnc(n2)Nc2ccc(N3CCOCC3)c(c2)CN2CCC[C@@H]12", "value_observed": "> 10 µM"}
{"compound_structure_string": "C[C@@H]1NCc2ccc(Cl)c(c2)Nc2nccc(n2)-c2cccc(c2)CNC1=O", "value_observed": "> 10 µM"}
{"compound_structure_string": "COc1ccc2cc1CN(C)CCNC(=O)[C@@H]1CCCN1Cc1cc(NCCc3ccccc3)cc(c1)Nc1nccc-2n1", "value_observed": "> 10 µM"}
{"compound_structure_string": "COc1ccc2cc1CN(C)CCNC(=O)[C@@H]1CCCN1Cc1cc(cc(N3CCOCC3)c1)Nc1nccc-2n1", "value_observed": "> 10 µM"}

Record request: IC50 value, item COc1cc2cc(c1)Nc1nccc(n1)-c1ccc(cc1)CN(C)CCNC(=O)[C@@H]1CCCN1C2
> 10 µM

Param item: O=C1CN2CCN(CC2)Cc2cc(ccc2N2CCOCC2)Nc2nccc(n2)-c2ccc(cc2)CN1
> 10 µM

Param item: COc1ccc2cc1CN(C)CCNC(=O)C1CCN(CC1)Cc1cc(NCCc3ccccc3)cc(c1)Nc1nccc-2n1
5.89 µM

----------
Biological target: CDK1/CyclinB (h) (Homo sapiens)
Sequence (P06493 whole entry): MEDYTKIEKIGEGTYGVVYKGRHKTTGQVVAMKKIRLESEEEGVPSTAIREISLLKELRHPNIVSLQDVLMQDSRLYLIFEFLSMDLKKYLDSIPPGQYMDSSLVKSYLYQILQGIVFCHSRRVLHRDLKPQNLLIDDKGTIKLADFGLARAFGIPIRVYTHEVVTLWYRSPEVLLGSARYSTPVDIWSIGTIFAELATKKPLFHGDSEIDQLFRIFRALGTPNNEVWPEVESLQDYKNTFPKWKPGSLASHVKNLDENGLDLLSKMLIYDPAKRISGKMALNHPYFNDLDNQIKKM
Sequence (P14635 whole entry partner): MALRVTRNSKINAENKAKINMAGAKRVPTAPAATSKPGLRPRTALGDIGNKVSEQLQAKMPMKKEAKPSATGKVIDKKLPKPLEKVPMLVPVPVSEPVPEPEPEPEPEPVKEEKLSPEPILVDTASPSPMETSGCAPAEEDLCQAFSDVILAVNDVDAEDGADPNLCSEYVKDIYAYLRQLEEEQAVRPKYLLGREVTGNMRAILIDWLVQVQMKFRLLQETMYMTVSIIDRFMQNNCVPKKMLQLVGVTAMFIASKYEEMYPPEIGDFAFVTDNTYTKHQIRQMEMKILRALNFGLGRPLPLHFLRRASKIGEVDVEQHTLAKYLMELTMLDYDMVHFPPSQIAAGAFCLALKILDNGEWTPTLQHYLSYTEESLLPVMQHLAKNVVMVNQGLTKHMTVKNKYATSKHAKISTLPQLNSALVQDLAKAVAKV
Assay: CDK1/CyclinB human kinase inhibition, Invitrogen's FRET assay (Z'lyte)
Assay type: biochemical
Conditions: read-out: CDK1 pIC50 (converted)
endpoint: IC50

Study these solved cases before continuing.
{"molecule": "CN1CCCNC(=O)CN2CCN(CC2)Cc2cc(Br)cc(c2)Nc2nccc(n2)-c2ccc(cc2)C1 [Compound 137]", "IC50": "> 10 µM"}
{"molecule": "O=C(NC1CCOCC1)c1cc2cc(c1)Nc1nccc(n1)-c1cccc(c1)CNC(=O)[C@@H]1CCCN1C2 [Compound 37]", "IC50": "5.37 µM"}
{"molecule": "COc1cc2cc(c1)Nc1nccc(n1)-c1ccc(OC)c(c1)CN(C)CCCNC(=O)C1CCN(CC1)C2 [Compound 73]", "IC50": "> 10 µM"}

Record request: IC50 value, item COc1ccc2cc1CN(C)CCCNC(=O)CN1CCN(CC1)Cc1cccc(c1)Nc1nccc-2n1 [Compound 146]
> 10 µM

Param item: COc1ccc2cc1CN[C@@H](CO)C(=O)N(C)CCCN(C)c1ccc(cn1)-c1ccnc(n1)N2 [Compound 11]
> 10 µM

Param item: COc1ccc2cc1CN(C)CCNC(=O)C1CCN(CC1)Cc1cc(Br)cc(c1)Nc1nccc-2n1 [Compound 79]
> 10 µM

Param item: COCCNCc1cc2cc(c1)Nc1nccc(n1)-c1cccc(c1)CNC(=O)[C@@H]1CCCN1C2 [Compound 33]
0.537 µM

----------
Biological target: AuroraB (h) (Homo sapiens, UniProt Q96GD4)
Test: Aurora-B human kinase inhibition, SPA
Format: biochemical
Settings: read-out: AuroraB pIC50 (converted)
endpoint: IC50

{"compound_structure_string": "COc1ccc2cc1CN(C)CCCNC(=O)C1CCN(CC1)Cc1cc(cc(NC(C)C)c1)Nc1nccc-2n1", "value_observed": "6.03 µM"}
{"compound_structure_string": "C[C@@H]1NCc2cc(ccc2N2CCOCC2)Nc2nccc(n2)-c2cccc(c2)CNC1=O", "value_observed": "> 10 µM"}
{"compound_structure_string": "COc1ccc2cc1CN(C)CCCNC(=O)CN1CCN(CC1)Cc1cc(cc(NC(C)C)c1)Nc1nccc-2n1", "value_observed": "6.31 µM"}

Record request: IC50 value, item COc1cc2cc(c1)Nc1nccc(n1)-c1ccc(cc1)CN(C)CCCNC(=O)[C@@H]1CCCN1C2
> 10 µM

Param item: COc1ccc2cc1CN(C)CCNC(=O)[C@H](CO)NCc1cc(Br)cc(c1)Nc1nccc-2n1
> 10 µM

----------
Test system: HCT-116
Assay: Cellular proliferation assay (Alamar blue), HCT-116
Format: cell-based
Details: Homo sapiens, 10% FCS, 72 hours with compound, Alamar blue 4 h
endpoint: IC50 (µM)

A = CN1CCC(NC(=O)c2cc3cc(c2)Nc2nccc(n2)-c2cccc(c2)CNC(=O)[C@@H]2CCCN2C3)CC1
B = CN(C)C(=O)c1ccc2cc1CN1CCC[C@H]1C(=O)NCc1cccc(c1)-c1ccnc(n1)N2
Please indicate which has the smaller reported IC50: A , or B . Choose, then provide that item's label.
A

----------
Test system: HCT-116
Assay: Cellular proliferation assay (Alamar blue), HCT-116
Type: cell-based
Details: Homo sapiens, 10% FCS, 72 hours with compound, Alamar blue 4 h
Description: […] functional properties of these compounds were tested in cellular proliferation assays on a panel of different cell lines in the presence of 10% FCS serum (37° C. and 5% (v/v) CO2). In a first step these cells were seeded and incubated for 24 hours in the absence of compound. In the second step the cells were incubated for 72 hours with the compounds to be tested for 72 hours. The viable cell number was finally assessed in a standard Alamar blue cell viability assay. […]
endpoint: IC50 (nM)

Study these solved cases before continuing.
{"compound_structure_string": "O=C1NCCOc2ccc(cc2)-c2ccnc(n2)Nc2ccc(N3CCOCC3)c(c2)CN2CCC1CC2", "IC50, nM": 105}
{"compound_structure_string": "COc1cc2cc(c1)Nc1nccc(n1)-c1ccc(cc1)CN(C)CCNC(=O)[C@H](CO)NC2", "IC50, nM": 2690}
{"compound_structure_string": "CN(C)C(=O)c1cc2cc(c1)Nc1nccc(n1)-c1cccc(c1)CNC(=O)[C@@H]1CCCN1C2", "IC50, nM": 1320}

1 = O=C1NCc2cc(ccc2N2CCOCC2)Nc2nccc(n2)-c2cccc(c2)CCN2CCC[C@@H]12
2 = O=C1NCc2cc(ccc2N2CCOCC2)Nc2nccc(n2)-c2cccc(c2)CCCN2CCC[C@@H]12
Short answer wanted: higher IC50, 1 or 2 ? Choose, then provide that item's label.
1
